tested on: DLK; construct: gene MAP3K12; conditions: concentration: 1 μM, replicates: in singlicate; n = 1;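 note: KINOMEscan kinase panel screen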
true means recorded %Inh is 30% or above; false means it is below 30%.

Worked set:
{"columns": ["Molecule", "System Under Test", "Class Label"],
 "data": [
  ["[2H]C([2H])(c1cccc(C(F)(F)F)c1C)n1ccn2c(=O)nc(N3CCOCC3)cc12", "DLK", "false"],
  ["NS(=O)(=O)c1cccc(-c2ccc3ncc(N4CCOCC4)nc3c2)c1", "DLK", "false"],
  ["COc1ccc(Nc2nccc(N3CCC(NC(=O)Nc4cccc(C(C)=O)c4)C3)n2)cc1 (centres unmarked)", "DLK", "false"],
  ["Cc1cccc(Cn2ccn3c(=O)cc(N4CCOCC4)nc23)c1", "DLK", "true"],
  ["Cc1ccc(NC(=O)c2ccnc(N3CCN(C)CC3)c2)cc1-c1ccc(C(=O)NCC2CC2)cc1", "DLK", "false"],
  ["COCCNC(=O)c1ccc(-c2cc(C(=O)NC3CC3)cc(F)c2C)cc1", "DLK", "false"]
]}

Now consider the entry below.
Prompt: Is %Inh for O=C(NCCCN1CCOCC1)c1cccc(Nc2nccc(Nc3ccc(Oc4ccccc4)cc3)n2)c1 at or above 30%?
Completion: false

###

tested on: ARK5; construct: gene NUAK1; conditions: concentration: 1 μM, replicates: in singlicate; n = 1
Recorded Endpoint: %Inh
Enter the number, and then the unit.

Before answering, review these 2 worked examples.
{"columns": ["Compound", "%Inh"],
 "data": [
  ["COc1ccc(Nc2nccc(N3CCC(NC(=O)Nc4cccc(C(C)=O)c4)C3)n2)cc1 (stereo not drawn) [GSK1379731]", "50%"],
  ["Fc1ccc(-c2ncn(CCCN3CCOCC3)c2-c2ccccn2)cc1 [SB-211742]", "0%"]
]}

Okay, now this compound:
Prompt: Annotate the compound COc1cc2c(cc1OC[C@@H](O)CO)ncc1c3ccc(C#N)cc3[nH]c21 with its measured %Inh.
Completion: 0%

###

tested on: BMPR2; settings: concentration: 1 μM, replicates: in singlicate; n = 1
Please note: MET applies when %Inh is 10% or greater, and NOT MET applies otherwise.

Field: example entries. Status: answers known.
{"columns": ["Molecule", "System Under Test", "Class Label"],
 "data": [
  ["Cc1cccc(-c2nc(Nc3ccc4ncsc4c3)c3ccccc3n2)n1 [GW867588]", "BMPR2", "MET"],
  ["CCc1ccnc(/C=C/c2n[nH]c3cc(Sc4ccccc4C(=O)NC)ccc23)c1", "BMPR2", "MET"],
  ["c1ccc(-c2n[nH]cc2-c2ccnc3ccccc23)nc1 [GW271431]", "BMPR2", "NOT MET"],
  ["COc1ccc(Nc2nccc(N3CCC(NC(=O)Nc4cccc(C(C)=O)c4)C3)n2)cc1 (stereo not drawn) [GSK1379731]", "BMPR2", "NOT MET"],
  ["COCCNC(=O)c1ccc(-c2cc(C(=O)NC3CC3)cc(F)c2C)cc1 [GW868318]", "BMPR2", "MET"],
  ["Cl.Oc1cccc(Nc2ccnc3cc(-c4ccncc4)ccc23)c1 [GW494601]", "BMPR2", "MET"],
  ["O=c1cc(N2CCOCC2)nc2n(Cc3cccc(C(F)(F)F)c3)ccn12 [GSK2297543]", "BMPR2", "NOT MET"],
  ["COc1cc2c(cc1OC[C@@H](O)CO)ncc1c3ccc(C#N)cc3[nH]c21", "BMPR2", "NOT MET"]
]}

Prompt: Does %Inh meet or surpass 10% for O=c1cc(N2CCOCC2)nc2n(Cc3cccc(Cl)c3Cl)c(C3CC3)nn12 [GSK2358994] ?
Completion: MET

Prompt: I'd appreciate it if you could say whether O=C(NCCNc1ccnc(Nc2ccc(F)cc2)n1)Nc1ccccc1F [GSK1379880] has %Inh at least equal to 10%.
Completion: NOT MET

Prompt: Is reported %Inh greater than or equal to 10% here: Cc1cccc(Cn2ccn3c(=O)cc(N4CCOCC4)nc23)c1 [GSK2297542]
Completion: NOT MET

Prompt: Hi team, for Cc1nnc(-c2ccc(C)c(-c3ccc(C(=O)Nc4ccc(NS(C)(=O)=O)cc4)cc3)c2)o1 [GW702865] , is the recorded %Inh at or above 10%?
Completion: NOT MET

The reported measurements were obtained from paper PMC5540273.
